Provide the reported solubility of each item.
# TEST_METHOD_NOTES: Aqueous solubility of the compound at pH 6.8
# Type: physicochemical
# TEST_PARAMETERS: aqueous medium
One number for each entry, in µM.

SMILES_INPUT: O=c1cc(COc2cccc(OCC3CCOCC3)c2)[nH]c2ccccc12
READOUT_LABEL: solubility
OBS_VALUE: 4
--
SMILES_INPUT: O=c1c(Cl)c(COc2cccc(OCC3CCOCC3)c2)[nH]c2ccccc12
READOUT_LABEL: solubility
OBS_VALUE: 2

Please supply solubility for each of the following items, keeping them in order.
1. Cc1c(COc2cc(OCCC(C)(C)O)ccn2)[nH]c2ccccc2c1=O
2. Cc1c(COc2cccc(OCC3CCOCC3)n2)[nH]c2ccccc2c1=O

A:
85
3
